assay: Cell Viability - LYMP2-003 (AID 965); conditions: LYMP2-003 lymphoblastoid cell viability; series mostly up to 92.2 µM;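 note: cells exposed to compounds for 24 h before reading; 0% = DMSO only and full effect = 92 µM tetraoctylammonium bromide; nearly all actives have a fitted effect of over 50% in size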
Records with an inconclusive call do not appear. Active and inactive are the calls of the source. Calls come from the whole dose curve; as a rule, active = well fitted cell-killing curve with a large enough effect; inconclusive = small, poorly fitted or top-dose-only effect, or effect the other way; inactive = flat fitted curve, though single readings scatter.

compound | outcome
COC1=CC(=O)OC(CCc2ccccc2)C1 (stereo not drawn) | inactive
CCOP(=S)(OCC)Oc1ccc([N+](=O)[O-])cc1 | inactive
ClC(Cl)(Cl)c1ccccc1 | inactive

###

Measured caspase-3 activation values are reported for all entries that follow.
test: Cellular Toxicity (caspase-3) Jurkat (AID 655); conditions: Jurkat caspase-3 activation, luminescence, DMSO = 0%, tamoxifen = 100%; at 92.2 µM (top of the series);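 note: cells exposed to compound for 16 h at 37 °C before reading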
Inconclusive results are not listed. Calls of active or inactive are those of the source. Calls come from the whole dose curve; as a rule, active = well fitted activation curve with a large enough effect; inconclusive = small, poorly fitted or top-dose-only effect; inactive = flat fitted curve, though single readings scatter.

Reference set (4 entries):
molecule | caspase-3 activation
c1ccc(-c2ccccc2)cc1 | 0.52% (inactive)
Cc1cccc([N+](=O)[O-])c1 | -1.23% (inactive)
C=CCOC(C)=O | 0.277% (inactive)
Cc1ccc([N+](=O)[O-])cc1C | -0.46% (inactive)

Recorded caspase-3 activation of O=C(Cl)/C=C/C(=O)Cl , please. 0.334% (inactive)

Next molecule up: c1ccc(OP(Oc2ccccc2)Oc2ccccc2)cc1 -1.12% (inactive)

Next molecule up: C=CCOC(=O)c1ccccc1N 0.746% (inactive)

Next molecule up: ClC1=C(Cl)C2(Cl)C3C(Cl)C=CC3C1(Cl)C2(Cl)Cl (stereo not given) 5.51% (inactive)

Next molecule up: COP(=S)(OC)Oc1ccc([N+](=O)[O-])cc1 4.38% (inactive)

Next molecule up: Nc1ccccc1Cl -0.675% (inactive)

Next molecule up: CCOP(=S)(OCC)SCSC(C)(C)C -0.764% (inactive)
